B1: library; numbered along this chain (parent)
chain: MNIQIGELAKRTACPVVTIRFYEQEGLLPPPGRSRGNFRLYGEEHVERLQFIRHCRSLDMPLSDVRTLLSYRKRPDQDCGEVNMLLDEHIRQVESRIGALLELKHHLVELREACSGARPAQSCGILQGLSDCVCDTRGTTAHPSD

variants of: B1; test: sfGFP reporter fluorescence (15 h) (µM FITC); higher = higher leak; conditions: library round: Round 0; ligand: none
measured metric: sfGFP reporter fluorescence
Write no unit; give the number alone.

Lab book: sfGFP reporter fluorescence of MNIQIGELAKRTACPVVTIRFYEQEGLLPPPGRSRGNFRLYGEEHVERLQFIRHCRSLDMPLSDVRTLLSYRKRPDQDCGEVNMLLDEHIRQVESRIGALLELKHHLVELREAISGARPAQSCGILQGLSDCVCDTRGTTAHPSD [C114I] noted as 0.0572

Lab book: sfGFP reporter fluorescence of MNIQIGELAKRTACPVVTIRFYEQEGLLPPPGRSRGNFRLYGEEHVERLQFIRHCRSLDMPLSDVRTLLSYRKRPDQDCGEVNMLLDEHIRQVESRIGALLELKHHLVEMREACSGARPAQSCGILQGLSDCVCDTRGTTAHPSD [L110M] noted as 0.0568

***
Lab book: sfGFP reporter fluorescence of MNIQIGELAKRTACPVVTIRFYEQEGLLPPPGFSRGNFRLYGEEHVERLQFIRHCRSLDMPLSDVRTLLSYRKRPDQDCGEVNMLLDEHIRQVESRIGALLELKHHLVELREACSGARPAQSCGILQGLSDCVCDTRGTTAHPSD [R33F] noted as 0.0599

Lab book: sfGFP reporter fluorescence of MNIQIGELAKRTACPVVTIRRYEQEGLLPPPGRSRGNFRLYGEEHVERLQFIRHCRSLDMPLSDVRTLLSYRKRPDQDCGEVNMLLDEHIRQVESRIGALLELKHHLVELREACSGARPAQSCGILQGLSDCVCDTRGTTAHPSD [F21R] noted as 0.0645

Lab book: sfGFP reporter fluorescence of MNIQIGELAKRTACPVVTIRFYEQEGLLPPPGRSRGNFRLYGEEHVERLQFIRHCRSLDMNLSDVRTLLSYRKRPDQDCGEVNMLLDEHIRQVESRIGALLELVHHLVELREACSGARPAQSCGILQILSDCVCDTRGTTAHPSD [P61N K104V G128I] noted as 0.133

Lab book: sfGFP reporter fluorescence of MNIQIGELAKRTACPVVTIRMYEQEGLLPPPGRSRGNFRLYGEEHVERLQFIRHCRSLDMPLSDVRTLLSYRKRPDQDCGEVNMLLDEHIRQVESRIGALLELKHHLVELREACSGARPAQSCGILQGLSDCVCDTRGTTAHPSD [F21M] noted as 0.0599

Lab book: sfGFP reporter fluorescence of MNIQIGELAKRTACPVVTIRFYEQEGLLPPPARSRGNFRLYGEEHVERLQFIRHCRSLDMPLSDVRTLLSYRKRPDQDCGEVNMLLDEHIRQVESRIGALLELKHHLVELREACSGARPAQSCGILQGLSDCVCDTRGTTAHPSD [G32A] noted as 0.0614

Lab book: sfGFP reporter fluorescence of MNIQINELAKRTACPVVTIRFYEQEGLLPPPGRSRGNFRLYGEEHVERLQFIRHCRSLDMPLSDVRTLLSYRKRPDQDCGEVNMLLDEHIRQVESRIGALLELKHHLVELREACSGARPAQSCGILQGLSDCVCDTRGTTAHPSD [G6N] noted as 0.0607

Lab book: sfGFP reporter fluorescence of MNIQIGELAKRTACPVVTIRFYEQEGLLPPPGRSRGNFRLYGEEHVERLQFIRHCRSLDMNLSKVRTLLSYRKRPDQDCGEVNMLLDEHIRQVESRIGALLELVHHCVELREACSGARPAQSCGILQGLSDCVCDTRGTTAHPSD [P61N D64K K104V L107C] noted as 0.676

Lab book: sfGFP reporter fluorescence of MNIQIGELAKRTACPVVTIRFYEQEGLLPPPGRSRGNFRLYGEEHVERLQFIRHCRSLDMPLSDVRTLLSYRKRPDQDCGEVNMLLDEHIRQVESRIGALLELKHHLVELREACSGARPAQSCGIIQGLSDCVCDTRGTTAHPSD [L126I] noted as 0.0542

Lab book: sfGFP reporter fluorescence of MNIQIGELAKRTACPVVTIRFYEQEGLLPPPGRSRGNFVLYGEEHVERLQFIRHCRSLDMPLSDVRTLLSYRKRPDQDCGEVNMLLDEHIRQVESRIGALLELKHHLVELREACSGARPAQSCGILQGLSDCVCDTRGTTAHPSD [R39V] noted as 0.0588
